Target: T1, HLA-B*44:05 (human)
T1 construct: also called peptide-receptive MHC class I molecule
Experiment: UV peptide exchange, anti-b2m ELISA
The entries below come with measured peptide exchange yield values attached.

Binder | peptide exchange yield
REYEYDLKW | > 75%
DELSVGRY | 20 to 50%
DEIDKLTGY | 20 to 50%
NESGKAFNY | > 75%

Exam item: Query: peptide exchange yield; subject: AEIEADRSYQ
Marked response: 20 to 50%

Exam item: Query: peptide exchange yield; subject: AESLFREAL
Marked response: 50 to 75%

Exam item: Query: peptide exchange yield; subject: KEAINLLKNY
Marked response: 50 to 75%

Exam item: Query: peptide exchange yield; subject: YENIPVDKV
Marked response: 50 to 75%

Exam item: Query: peptide exchange yield; subject: RELARVVTL
Marked response: > 75%

Exam item: Query: peptide exchange yield; subject: MEFQGPMPAGM
Marked response: 50 to 75%

Exam item: Query: peptide exchange yield; subject: LEGGGRGGEF
Marked response: 20 to 50%

Exam item: Query: peptide exchange yield; subject: GETCVRITY
Marked response: 50 to 75%
